- tgt: T1, human TMEM106B (human, UniProt Q9NUM4 2-274)
- T1 construct: full-length, transiently expressed on HEK293 cells, or natively expressed on HeLa, U251 and A549 cells (the cell is named under assay); also the source of the Pepscan peptides; also called huTMEM106B; huTMEM
- experiment: FACS HEK+huTMEM 10 ug/ml;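 note: flow cytometric binding of purified mouse IgG antibodies to HEK293 cells transiently expressing human TMEM106B, read as median fluorescence intensity on live cells with propidium iodide-positive cells excluded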
assay endpoint: MFI (MFI)
Express it in MFI; write the number only.

// below: answered binders
>  <binder>
TM-37 (antibody, V domains shown) VH: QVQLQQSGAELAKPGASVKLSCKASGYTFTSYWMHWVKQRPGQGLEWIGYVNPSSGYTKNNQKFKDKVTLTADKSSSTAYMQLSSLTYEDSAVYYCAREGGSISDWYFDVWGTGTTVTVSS VL: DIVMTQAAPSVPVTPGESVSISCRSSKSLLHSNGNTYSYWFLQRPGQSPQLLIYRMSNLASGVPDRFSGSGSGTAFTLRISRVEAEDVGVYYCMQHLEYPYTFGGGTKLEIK

>  <MFI [MFI]>
50500

$$$$
>  <binder>
TM-8 (antibody, V domains shown, mouse IgG (hybridoma)) VH: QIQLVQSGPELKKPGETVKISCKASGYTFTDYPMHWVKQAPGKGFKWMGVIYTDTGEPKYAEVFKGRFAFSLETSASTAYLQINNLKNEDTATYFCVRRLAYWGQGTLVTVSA VL: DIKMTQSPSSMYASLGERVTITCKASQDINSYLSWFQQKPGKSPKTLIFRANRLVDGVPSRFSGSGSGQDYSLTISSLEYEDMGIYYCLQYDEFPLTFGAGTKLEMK

>  <MFI [MFI]>
465

$$$$

Here is the next item to consider.
Q: Find the recorded MFI belonging to TM-52 (antibody, V domains shown, mouse IgG (hybridoma)) VH: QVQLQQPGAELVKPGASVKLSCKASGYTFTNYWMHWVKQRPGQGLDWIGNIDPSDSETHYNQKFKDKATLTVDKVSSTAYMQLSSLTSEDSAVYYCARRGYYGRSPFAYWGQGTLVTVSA VL: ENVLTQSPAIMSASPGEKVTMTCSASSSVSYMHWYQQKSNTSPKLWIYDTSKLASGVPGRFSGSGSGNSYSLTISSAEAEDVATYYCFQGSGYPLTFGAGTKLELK and report it.
A: 7020
